Quick reference for cell viability/% among some compounds
test system: P388 mouse leukemia cells; conditions: 92 h
Where a SMILES comes first, the peptide text is derived from it. [ ]: non-standard residue; d: D form. The star is where a group is joined. NHCH2CH2OH = OCCN*; For = O=C*
outcome_measure: cell viability/%

compound	outcome_measure	measured_value
CNC(=O)C[C@@H](NC(=O)[C@@H](NC(=O)[C@@H](CC(C)C)NC(=O)[C@H](C)NC(=O)[C@@H](CC(C)C)NC(=O)[C@H](C)NC(=O)CNC(=O)[C@@H](NC=O)C(C)C)C(C)C)C(=O)N[C@@H](Cc1c[nH]c2ccccc12)C(=O)N[C@H](CC(C)C)C(=O)N[C@@H](Cc1c[nH]c2ccccc12)C(=O)N[C@H](CC(C)C)C(=O)N[C@@H](Cc1c[nH]c2ccccc12)C(=O)N[C@@H](C(=O)N[C@@H](Cc1c[nH]c2ccccc12)C(=O)NCCO)[C@H](C)O [compound 5746] (For-VGA[dL]A[dL]V[dD](NHMe)W[dL]W[dL]W[dT]W-NHCH2CH2OH)	cell viability/%	100.0%
CC(C)C[C@@H](NC(=O)[C@H](Cc1c[nH]c2ccccc12)NC(=O)[C@H](NC(=O)[C@H](Cc1c[nH]c2ccccc12)NC(=O)[C@H](NC(=O)[C@H](Cc1c[nH]c2ccccc12)NC(=O)[C@H](NC(=O)[C@@H](NC(=O)[C@H](NC(=O)[C@H](C)NC(=O)[C@H](NC(=O)[C@H](C)NC(=O)CNC(=O)[C@@H](NC=O)C(C)C)[C@H](C)O)C(C)C)C(C)C)C(C)C)C(C)C)C(C)C)C(=O)N[C@@H](Cc1c[nH]c2ccccc12)C(=O)NCCO [compound 9354] (For-VGA[dT]A[dV]V[dV]W[dV]W[dV]W[dL]W-NHCH2CH2OH)	cell viability/%	100.0%

---

Test system: P388 mouse leukemia cells
Settings: 92 h
Description: Each type of assay must be simplified and miniaturized to assess the activities of the library peptides in a 96-well format for the high-throughput screening. […] Mammalian cytotoxicity assay of bead-derived peptides . P388 cells were obtained from Institute of […] for 92 h, the numbers of viable cells were determined by […] at 37 °C. The absorbance of each well at 415 nm was measured using a Benchmark microplate reader (Bio-Rad). The cytotoxicities were evaluated as cell viability (%). […]
Where a SMILES comes first, the peptide text is derived from it. [ ]: non-standard residue; d: D form. The star is where a group is joined. NHCH2CH2OH = OCCN*; For = O=C*
Overview of reported cell viability/% across a group of compounds:
outcome_measure: cell viability/% (%)

compound	measured_value
CNC(=O)C[C@@H](NC(=O)[C@H](Cc1c[nH]c2ccccc12)NC(=O)[C@H](NC(=O)[C@H](Cc1c[nH]c2ccccc12)NC(=O)[C@H](NC(=O)[C@H](Cc1c[nH]c2ccccc12)NC(=O)[C@@H](CC(C)C)NC(=O)[C@@H](NC(=O)[C@H](NC(=O)[C@H](C)NC(=O)[C@@H](CC(C)C)NC(=O)[C@H](C)NC(=O)CNC(=O)[C@@H](NC=O)C(C)C)C(C)C)C(C)C)C(C)C)C(C)C)C(=O)N[C@@H](Cc1c[nH]c2ccccc12)C(=O)NCCO [compound 6520] (For-VGA[dL]A[dV]V[dL]W[dV]W[dV]W[dD](NHMe)W-NHCH2CH2OH)	100.0
CC(C)C[C@@H](NC(=O)[C@H](C)NC(=O)[C@H](NC(=O)[C@H](C)NC(=O)CNC(=O)[C@@H](NC=O)C(C)C)C(C)C)C(=O)N[C@H](C(=O)N[C@@H](C(=O)N[C@@H](Cc1c[nH]c2ccccc12)C(=O)N[C@H](CC(C)C)C(=O)N[C@@H](Cc1c[nH]c2ccccc12)C(=O)N[C@H](CC(C)C)C(=O)N[C@@H](Cc1c[nH]c2ccccc12)C(=O)N[C@H](CC(C)C)C(=O)N[C@@H](Cc1c[nH]c2ccccc12)C(=O)NCCO)C(C)C)C(C)C [compound 10593] (For-VGA[dV]A[dL]V[dV]W[dL]W[dL]W[dL]W-NHCH2CH2OH)	38.5
